The reported measurements were obtained from the supplement of paper PMC11061612.

system: NCCIT (Other Solid Carcinomas); assay: Bliss excess, mean over the matrix (fraction); higher = more synergy;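 further: after 72 h of two-drug dosing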
A collection of compounds and their measured Bliss excess
quantity-name: Bliss excess

compound | value
Cc1nc(Nc2ncc(C(=O)Nc3c(C)cccc3Cl)s2)cc(N2CCN(CCO)CC2)n1 [Dasatinib] + CC(=O)Nc1cccc(-n2c(=O)n(C3CC3)c(=O)c3c(Nc4ccc(I)cc4F)n(C)c(=O)c(C)c32)c1 [Trametinib] (first compound max 2 µM, 7x7, partner max 1 µM) | -0.0842
Cc1c2c(nn1C)CSCc1cc(n(C)n1)CSc1cc(c3ccccc3c1)OCCCc1c(C(=O)O)n(C)c3c-2c(Cl)ccc13 [AZD5991] + CN(C)CCCOc1ccc(-c2ccc3ncc4c(c3c2)n(C2CCOCC2)c(=O)n4C)cn1 [AZD0156] (first compound max 1 µM, 7x7, partner max 1 µM) | -0.039
COc1cccc(OCCCN)c1-c1cc(Nc2cnc(C#N)cn2)n[nH]1 [Prexasertib] + C=CCn1c(=O)c2cnc(Nc3ccc(N4CCN(C)CC4)cc3)nc2n1-c1cccc(C(C)(C)O)n1 [AZD1775] (first compound max 1 µM, partner max 1 µM) | 0.0561
C[C@@H](Oc1cc(-c2cnn(C3CCNCC3)c2)cnc1N)c1c(Cl)ccc(F)c1Cl [Crizotinib] + Cn1cnc2c(F)c(Nc3ccc(Br)cc3Cl)c(C(=O)NOCCO)cc21 [Selumetinib] (first compound max 10 µM, 7x7, partner max 10 µM) | -0.0503
